- System: Mus musculus
- ASSAY_PROTOCOL: Antiinflammatory activity in iv dosed mouse assessed as inhibition of LPS-stimulated TNFalpha production
- Assay type: functional
Item-by-item account of ED50

# MOL, ED50
measured = [
    ("COc1cc(O)c2c(c1)/C=C/C[C@H](O)[C@H](O)C(=O)/C=C\\[C@@H](C)[C@H](C)OC2=O", "13.2 mg/kg"),
    ("CCOc1cc(O)c2c(c1)/C=C/C[C@H](O)[C@H](O)C(=O)/C=C\\[C@@H](C)[C@H](C)OC2=O", "12 mg/kg"),
    ("C[C@@H]1/C=C\\C(=O)[C@@H](O)[C@@H](O)C/C=C/c2cc(OCCCS(C)(=O)=O)cc(O)c2C(=O)O[C@H]1C", "9.8 mg/kg"),
    ("C[C@@H]1/C=C\\C(=O)[C@@H](O)[C@@H](O)C/C=C/c2cc(OCCn3ccnc3)cc(O)c2C(=O)O[C@H]1C", "6.5 mg/kg"),
]

###

Item-by-item account of log10 of IC50
- Test system: U-937
- ASSAY_PROTOCOL: Inhibition of PALP-fussed TNFalpha production in human U937 cells
- Type: functional, cell-based
QUANTITY: log10 of IC50 (log10 of the value in µM)

# COMPOUND, QUANTITY, VALUE_MEASURED
data = [
    ("COc1cc(O)c2c(c1Br)/C=C/C[C@H](O)[C@H](O)C(=O)/C=C\\[C@@H](C)[C@H](C)OC2=O", "log10 of IC50", -0.09),
    ("COc1ccc(COc2cc(O)c3c(c2)/C=C/C[C@H](O)[C@H](O)C(=O)/C=C\\[C@@H](C)[C@H](C)OC3=O)cc1", "log10 of IC50", -0.77),
    ("C[C@@H]1/C=C\\C(=O)[C@@H](O)[C@@H](O)C/C=C/c2cc(OCCN(C)C)cc(O)c2C(=O)O[C@H]1C", "log10 of IC50", -0.22),
    ("CC(C)Oc1cc(O)c2c(c1)/C=C/C[C@H](O)[C@H](O)C(=O)/C=C\\[C@@H](C)[C@H](C)OC2=O", "log10 of IC50", -0.16),
    ("C[C@@H]1/C=C\\C(=O)[C@@H](O)[C@@H](O)C/C=C/c2cc(O)cc(O)c2C(=O)O[C@H]1C", "log10 of IC50", -0.29),
    ("CCCCOc1cc(O)c2c(c1)/C=C/C[C@H](O)[C@H](O)C(=O)/C=C\\[C@@H](C)[C@H](C)OC2=O", "log10 of IC50", -0.49),
    ("C[C@@H]1/C=C\\C(=O)[C@@H](O)[C@@H](O)C/C=C/c2cc(OC(F)F)cc(O)c2C(=O)O[C@H]1C", "log10 of IC50", -0.21),
    ("C[C@@H]1/C=C\\C(=O)[C@@H](O)[C@@H](O)C/C=C/c2cc(OCCn3ccnn3)cc(O)c2C(=O)O[C@H]1C", "log10 of IC50", -1.37),
    ("C[C@@H]1/C=C\\C(=O)[C@@H](O)[C@@H](O)C/C=C/c2cc(OCc3ccc(Cl)c(Cl)c3)cc(O)c2C(=O)O[C@H]1C", "log10 of IC50", -0.12),
    ("C[C@@H]1/C=C\\C(=O)[C@@H](O)[C@@H](O)C/C=C/c2cc(OCC(O)CO)cc(O)c2C(=O)O[C@H]1C (stereo not given in full)", "log10 of IC50", -0.42),
    ("C[C@@H]1/C=C\\C(=O)[C@@H](O)[C@@H](O)C/C=C/c2cc(OCc3ccccc3)cc(O)c2C(=O)O[C@H]1C", "log10 of IC50", -0.50),
    ("CCCOc1cc(O)c2c(c1)/C=C/C[C@H](O)[C@H](O)C(=O)/C=C\\[C@@H](C)[C@H](C)OC2=O", "log10 of IC50", -0.60),
    ("CCOc1cc(O)c2c(c1)/C=C/C[C@H](O)[C@H](O)C(=O)/C=C\\[C@@H](C)[C@H](C)OC2=O", "log10 of IC50", -1.00),
    ("COc1cc(O)c2c(c1)OCC[C@H](O)[C@H](O)C(=O)/C=C\\[C@@H](C)[C@H](C)OC2=O", "log10 of IC50", 0.23),
    ("C[C@@H]1/C=C\\C(=O)[C@@H](O)[C@@H](O)C/C=C/c2cc(OCCNc3ccccn3)cc(O)c2C(=O)O[C@H]1C", "log10 of IC50", -0.95),
]

###

- Tested on: U-937
- ASSAY_PROTOCOL: Inhibition of PALP-fussed TNFalpha production in human U937 cells
- Assay type: functional, cell-based
pIC50: −log10 of the molar value.
# label = Fulfilled if pIC50 >= 7 else Not fulfilled

# MOL, DISCRETE_LABEL
data = [
    ("C[C@@H]1/C=C\\C(=O)[C@@H](O)[C@@H](O)C/C=C/c2cc(OCCN3CCOCC3)cc(O)c2C(=O)O[C@H]1C", "Fulfilled"),
    ("COc1cc(O)c2c(c1)NC(=O)C[C@H](O)[C@H](O)C(=O)/C=C\\[C@@H](C)[C@H](C)OC2=O", "Not fulfilled"),
    ("C[C@@H]1/C=C\\C(=O)[C@@H](O)[C@@H](O)C/C=C/c2cc(OCCn3ccnc3)cc(O)c2C(=O)O[C@H]1C", "Fulfilled"),
    ("CC(=O)NCC(=O)COc1cc(O)c2c(c1)/C=C/C[C@H](O)[C@H](O)C(=O)/C=C\\[C@@H](C)[C@H](C)OC2=O", "Fulfilled"),
    ("C[C@@H]1/C=C\\C(=O)[C@@H](O)[C@@H](O)C/C=C/c2cc(OCCCS(C)(=O)=O)cc(O)c2C(=O)O[C@H]1C", "Fulfilled"),
]
